Values were extracted from patent US20250163162A1.

- measured-target: T1, IL10Rα/IL2Rγ receptor (human) (UniProt Q13651)
- T1 sequence (looked up) 1: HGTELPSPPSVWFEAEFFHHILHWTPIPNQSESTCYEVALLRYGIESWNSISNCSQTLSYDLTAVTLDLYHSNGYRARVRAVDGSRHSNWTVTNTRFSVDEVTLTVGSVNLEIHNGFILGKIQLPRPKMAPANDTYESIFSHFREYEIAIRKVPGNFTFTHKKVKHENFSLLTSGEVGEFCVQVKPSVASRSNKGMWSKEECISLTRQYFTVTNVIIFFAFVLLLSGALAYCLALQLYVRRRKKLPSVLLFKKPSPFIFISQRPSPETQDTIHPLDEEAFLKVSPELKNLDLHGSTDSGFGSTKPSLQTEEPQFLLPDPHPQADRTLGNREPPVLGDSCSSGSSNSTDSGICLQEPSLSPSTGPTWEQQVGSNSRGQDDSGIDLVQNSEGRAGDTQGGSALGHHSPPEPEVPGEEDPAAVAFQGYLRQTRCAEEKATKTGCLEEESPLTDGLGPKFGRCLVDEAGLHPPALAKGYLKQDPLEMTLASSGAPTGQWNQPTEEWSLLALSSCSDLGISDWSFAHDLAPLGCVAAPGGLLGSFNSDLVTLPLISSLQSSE
- T1 sequence (looked up) 2: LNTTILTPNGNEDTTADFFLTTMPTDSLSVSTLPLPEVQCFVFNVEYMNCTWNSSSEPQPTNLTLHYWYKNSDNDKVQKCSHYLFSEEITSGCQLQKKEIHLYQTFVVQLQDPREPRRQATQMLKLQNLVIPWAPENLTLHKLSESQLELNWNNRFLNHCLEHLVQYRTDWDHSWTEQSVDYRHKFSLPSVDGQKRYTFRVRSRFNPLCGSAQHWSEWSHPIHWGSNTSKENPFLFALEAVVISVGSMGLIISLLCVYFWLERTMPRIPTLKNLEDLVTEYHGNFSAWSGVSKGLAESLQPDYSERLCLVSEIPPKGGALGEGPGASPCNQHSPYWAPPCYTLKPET
- method-description: cell-based or functional assay
experimental-readout: IL-9 secretion, CD8 T cells, at 0.01 µM (pg/mL)
One number for each entry, in pg/mL.

binder="hIL10Ra_VHH14 - hIL2Rg_VHH19, No linker, tag his (bispecific antibody, not shown: small tags and cut ends) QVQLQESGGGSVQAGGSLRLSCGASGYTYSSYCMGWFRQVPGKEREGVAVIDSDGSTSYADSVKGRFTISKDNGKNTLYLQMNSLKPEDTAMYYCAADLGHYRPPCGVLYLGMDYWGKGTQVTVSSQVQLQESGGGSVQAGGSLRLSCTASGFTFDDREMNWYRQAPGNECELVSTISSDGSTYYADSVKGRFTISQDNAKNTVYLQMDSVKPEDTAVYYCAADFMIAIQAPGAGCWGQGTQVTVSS" measured_value=1140
binder="hIL10Ra_VHH14 - hIL2Rg_VHH19, linker …, tag his (bispecific antibody, not shown: small tags and cut ends) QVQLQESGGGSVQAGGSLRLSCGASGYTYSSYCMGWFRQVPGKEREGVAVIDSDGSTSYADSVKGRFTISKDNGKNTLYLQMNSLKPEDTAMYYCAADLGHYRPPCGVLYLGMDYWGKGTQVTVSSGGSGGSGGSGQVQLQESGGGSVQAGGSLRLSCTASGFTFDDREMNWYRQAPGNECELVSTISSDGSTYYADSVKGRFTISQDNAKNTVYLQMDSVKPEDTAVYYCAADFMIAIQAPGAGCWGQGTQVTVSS" measured_value=1390

# context switch: different binder, same IL-9 secretion, CD8 T cells, at 0.01 µM
Task item: Which IL-9 secretion, CD8 T cells, at 0.01 µM value is on record for hIL10Ra_VHH14 - hIL2Rg_VHH19, linker GGGS, tag Fc (bispecific antibody, not shown: a dimerising Fc or GST) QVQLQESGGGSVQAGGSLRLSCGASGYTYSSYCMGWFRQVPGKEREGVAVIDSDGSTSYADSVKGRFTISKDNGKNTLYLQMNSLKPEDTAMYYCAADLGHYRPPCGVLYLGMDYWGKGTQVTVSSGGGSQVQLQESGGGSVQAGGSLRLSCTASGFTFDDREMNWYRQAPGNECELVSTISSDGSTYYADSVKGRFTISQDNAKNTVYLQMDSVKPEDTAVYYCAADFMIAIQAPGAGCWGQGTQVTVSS ?
Reply: 1160
